Test system: CHO-parent cells
Experiment: Flow cytometry binding assay on CHO-parent cells (background binding)
Set-up: species or system Chinese Hamster
Conditions: Table 6E; IgG titration
Protocol: GLP-1R IgG clones were tested in a binding assay coupled to flow cytometry analysis as follows: FLAG-GLP-1R-GFP expressing CHO cells (CHO-GLP-1R) and CHO-parent cells were incubated with 100 nM IgG for 1 h on ice, washed three times and incubated with Alexa 647 conjugated goat-anti-human antibody (1:200) (Jackson ImmunoResearch Laboratories, 109-605-044) for 30 min on ice, followed by three washes, centrifuging to pellet the cells between each washing step. […]
Reported values of Bmax CHO Parent for individual entries
OUTCOME_MEASURE: Bmax CHO Parent

1. GLP1R221-092: GLP1R-221 variant, optimized from GLP1R-3 (antibody, V domains shown) VH: QVQLVESGGGVVQPGRSLRLSCAASGFIFNNYGMHWVRQAPGKGLEWVAFISYGGSNKYYADSVKGRFTISRDNSKNTLYLQMNSLRAEDTAVYYCAKHMSMQEGAVTGEGQAVKEFIAWLVKGRVRADLVGDAFDVWGQGTLVTVSS VL: QSVLTQPPSVSAAPGQKVTISCSGTTSNIANNFVSWYQQLPGTAPKLLIYDNNKRPPGIPDRFSGSKSGTSATLGITGLQTGDEADYYCGTWDTSLSVGMFGGGTKLTVL; 291.2
2. GLP1R221-076: GLP1R-221 variant, optimized from GLP1R-3 (antibody, V domains shown) VH: QVQLVESGGGVVQPGRSLRLSCAASGFTFNNYPMHWVRQAPGKGLEWVAVISYDETNKYYADSVKGRFTISRDNSKNTLYLQMNSLRAEDTAVYYCAKHMSMQEGAVTGEGQAAKEFIAWLVKGIVRADLVGDAFDVWGQGTLVTVSS VL: QSVLTQPPSVSAAPGQKVTISCSGTSSNIGNNDVSWYQQLPGTAPKLLIYENNKRHSGIPDRFSGSKSGTSATLGITGLQTGDEADYYCLTWDHSLTAYVFGGGTKLTVL; 183.2
3. GLP1R221-066: GLP1R-221 variant, optimized from GLP1R-3 (antibody, V domains shown) VH: QVQLVESGGGVVQPGRSLRLSCAASGFTFNNYAMHWVRQAPGKGLEWVAVISYDRSNEYYADSVKGRFTISRDNSKNTLYLQMNSLRAEDTAVYYCAKHMSMQEGAVTGEGQAIKEFIAWLVKGRVRADLVGDAFDVWGQGTLVTVSS VL: QSVLTQPPSVSAAPGQKVTISCSGSSSNIGNNYLSWYQQLPGTAPKLLIYENNKRPSGIPDRFSGSKSGTSATLGITGLQTGDEADYYCGIWDRSLSAWVFGGGTKLTVL; 112.1
4. GLP1R221-034: GLP1R-221 variant, optimized from GLP1R-3 (antibody, V domains shown) VH: QVQLVESGGGVVQPGRSLRLSCAASGFPFSNYGMHWVRQAPGKGLEWVAVISHDRSNKYYADSVKGRFTISRDNSKNTLYLQMNSLRAEDTAVYYCAKHMSMQEGAVTGEGQAVKEFIAWLVKGRVRADLVGDAFDVWGQGTLVTVSS VL: QSVLTQPPSVSAAPGQKVTISCSGSSSNIGNNPVSWYQQLPGTAPKLLIYENDNRPSGIPDRFSGSKSGTSATLGITGLQTGDEADYYCATWDRGLSTGVFGGGTKLTVL; 279.8
5. GLP1R221-017: GLP1R-221 variant, optimized from GLP1R-3 (antibody, V domains shown) VH: QVQLVESGGGVVQPGRSLRLSCAASGFTFSDYGVHWVRQAPGKGLEWVAFISYDESNKYYADSVKGRFTISRDNSKNTLYLQMNSLRAEDTAVYYCAKHMSMQEGAVTGEYQAAKEFIAWLVKGRVRADLVGDAFDVWGQGTLVTVSS VL: QSVLTQPPSVSAAPGQKVTISCSGSSSNIGNTYVSWYQQLPGTAPKLLIYDDYKRPSGIPDRFSGSKSGTSATLGITGLQTGDEADYYCATWDATLNTGVFGGGTKLTVL; 228.7
6. GLP1R221-009: GLP1R-221 variant, optimized from GLP1R-3 (antibody, V domains shown) VH: QVQLVESGGGVVQPGRSLRLSCAASGFIFSNYGMHWVRQAPGKGLEWVAVISDEGSNKYYADSVKGRFTISRDNSKNTLYLQMNSLRAEDTAVYYCAKHMSMQEGAVTGAGQAAKEFIAWLVKGRVRADLVGDAFDVWGQGTLVTVSS VL: QSVLTQPPSVSAAPGQKVTISCSGSSSNIGNQYVSWYQQLPGTAPKLLIYDDHKRPSGIPDRFSGSKSGTSATLGITGLQTGDEADYYCGTWDTSLSVGEFGGGTKLTVL; 267.4
7. GLP1R221-075: GLP1R-221 variant, optimized from GLP1R-3 (antibody, V domains shown) VH: QVQLVESGGGVVQPGRSLRLSCAASGFTFSNYPMHWVRQAPGKGLEWVAVISYDETNKYYADSVKGRFTISRDNSKNTLYLQMNSLRAEDTAVYYCAKHMSMQEGAVTGEGQAAKEFIAWLVKGIVRADLVGDAFDVWGQGTLVTVSS VL: QSVLTQPPSVSAAPGQKVTISCSGSGSNIGNNDVSWYQQLPGTAPKLLIYDNDKRPAGIPDRFSGSKSGTSATLGITGLQTGDEADYYCGTWDTSLSNYVFGGGTKLTVL; 234
8. GLP1R221-033: GLP1R-221 variant, optimized from GLP1R-3 (antibody, V domains shown) VH: QVQLVESGGGVVQPGRSLRLSCAASGFSFSNYAMHWVRQAPGKGLEWVAVISHDRSNKYYADSVKGRFTISRDNSKNTLYLQMNSLRAEDTAVYYCAKHMSMQEGAVTGEGQAAKDFIAWLVKGRVRADLVGDAFDVWGQGTLVTVSS VL: QSVLTQPPSVSAAPGQKVTISCSGSSSNIGNEYVSWYQQLPGTAPKLLIYDNNKRVSGIPDRFSGSKSGTSATLGITGLQTGDEADYYCATWDTSLNVGVFGGGTKLTVL; 146
9. GLP1R221-065: GLP1R-221 variant, optimized from GLP1R-3 (antibody, V domains shown) VH: QVQLVESGGGVVQPGRSLRLSCAASGFTFNNYAMHWVRQAPGKGLEWVAVISYDRSNEYYADSVKGRFTISRDNSKNTLYLQMNSLRAEDTAVYYCAKHMSMQEGAVTGDGQAAKEFIAWLVKGRVRADLVGDAFDVWGQGTLVTVSS VL: QSVLTQPPSVSAAPGQKVTISCSGTTSNIANNFVSWYQQLPGTAPKLLIYDHNKRPSGIPDRFSGSKSGTSATLGITGLQTGDEADYYCGTWDTSLSAGAFGGGTKLTVL; 261.9

Data provenance is patent US12391762B2.
